# study system: MC receptor endogenous to Xenopus laevis melanophores (Xenopus laevis)
# test protocol: Schild plot; antagonism of α-MSH pigment dispersion in Xenopus melanophores (functional)
Square brackets hold non-standard residues; d marks the D form. * marks the point of attachment. Benzoyl(4-OMe) = COc1ccc(C(=O)*)cc1
observed property: pKi
One number for each entry, as −log10 of the molar value.

Specify reported pKi for the binder shown: {Benzoyl(4-OMe)}-RRIRPK[dL]-NH2 [p-anisoyl-[D-Leu^12] dynorphin A(6-12)-NH2]
7.57

The reported measurements were obtained from patent US20020004485A1.
